Test: qHTS assay for identifying genotoxic compounds that show differential cytotoxicity against isogenic chicken DT40 cell lines with known DNA damage response pathways - wild type cell line (AID 743012); note: nearly all actives have a fitted effect of over 60% in size
Conditions: DT40 wild type chicken cells viability, CellTiter-Glo, 40 h; series mostly up to 68.4 µM
Inconclusive results are not listed. Active and inactive are the calls of the source. Calls come from the whole dose curve; as a rule, active = well fitted cell-killing curve with a large enough effect in the repeat runs; inconclusive = weak or mixed curves, or effect the other way; inactive = no such curve, though single readings can be large or run the other way.
// allowed return values: active, inactive

[
  {
    "molecule": "CC/C(=C(/CC)c1ccc(OP(=O)(O)O)cc1)c1ccc(OP(=O)(O)O)cc1",
    "class": "inactive"
  },
  {
    "molecule": "C/C(=C\\C(=O)OCCCCCCCCC(=O)O)C[C@@H]1OC[C@H](C[C@@H]2O[C@H]2[C@@H](C)[C@H](C)O)[C@@H](O)[C@H]1O",
    "class": "active"
  },
  {
    "molecule": "CCOc1ccc([N+](=O)[O-])cc1",
    "class": "active"
  },
  {
    "molecule": "O=C1CCCCCCCCCCCCCC1",
    "class": "inactive"
  }
]

Q: How was `CN(C/C=C/c1ccccc1)Cc1cccc2ccccc12` classified in this test?
A: active

Q: Subsequent entry: `CC(C)(O/N=C(\C(=O)N[C@@H]1C(=O)N2C(C(=O)[O-])=C(C[n+]3ccccc3)CS[C@H]12)c1csc(N)n1)C(=O)O`
A: inactive

Q: Subsequent entry: `N#Cc1nc(Cl)c(Cl)c(Cl)c1Cl`
A: active

Q: Subsequent entry: `O=C1CCC(c2ccc(-n3ccnc3)cc2)=NN1`
A: inactive

Q: Subsequent entry: `CCCn1c(=O)[nH]c(=O)c2[nH]cnc21`
A: inactive

* * *

Assay: qHTS assay to identify small molecule agonists of the estrogen related receptor signaling pathway with the pleiotropic PPARgamma coactivator (PGC) from Tox21 10K library (AID 1224842); note: nearly all actives have a fitted effect of over 15% in size
Settings: PGC/ERR reporter cell line, luciferase ONE-Glo, 18 h; series mostly up to 92.4 µM
Results filed as inconclusive are left out. Calls of active or inactive are those of the source. Calls come from the whole dose curve; as a rule, active = well fitted activation curve with a large enough effect in the repeat runs; inconclusive = weak or mixed curves, or effect the other way; inactive = no such curve, though single readings can be large or run the other way.
quantity: outcome

Examples from the recorded data:
[
  {
    "molecule": "CCCC(C)C=O (centres undefined)",
    "experimentalValue": "inactive"
  },
  {
    "molecule": "C=CC(=O)O[C@H]1C[C@@H]2CC[C@@]1(C)C2(C)C",
    "experimentalValue": "inactive"
  },
  {
    "molecule": "Brc1cc(Br)cc(Br)c1",
    "experimentalValue": "inactive"
  },
  {
    "molecule": "Cc1ccc(Cl)c(N)c1Cl",
    "experimentalValue": "inactive"
  },
  {
    "molecule": "CCOC(=O)C1=NN(c2ccc(Cl)cc2Cl)C(C)(C(=O)OCC)C1 (centres undefined)",
    "experimentalValue": "inactive"
  },
  {
    "molecule": "CCCCCc1ccc(O)cc1",
    "experimentalValue": "inactive"
  }
]

Q: What outcome value was documented for this molecule, `CN[C@H]1CC[C@@H](c2ccc(Cl)c(Cl)c2)c2ccc(S(N)(=O)=O)cc21` ?
A: inactive

Q: Subsequent entry: S=C1NC=NC2N=CNC12 (centres undefined)
A: inactive

Q: Subsequent entry: `C=CCc1cc(S(=O)(=O)c2ccc(O)c(CC=C)c2)ccc1O`
A: inactive

Q: Subsequent entry: `CC1(C)[C@H]2CC[C@]1(C)C(=O)C2`
A: inactive

Q: Subsequent entry: `Cc1cc(Br)ccc1NC(=O)CCl`
A: inactive

Q: Subsequent entry: `COC(=O)c1ccc([N+](=O)[O-])cc1`
A: inactive

Q: Subsequent entry: `CCCCCCCCCCCCN1CCCC1=O`
A: inactive

Q: Subsequent entry: `O=c1[nH]cccc1O`
A: inactive
